Target: PSME3 Proteasome activator complex subunit 3 (Homo sapiens)
Construct: isoTOP-ABPP experiments performed in cell lysates (in vitro); endogenous in cells; host or cells: soluble proteome of human cancer cell lines (MDA-MB-231, Ramos, Jurkat)
Sequence (P61289 whole entry, one chain of several): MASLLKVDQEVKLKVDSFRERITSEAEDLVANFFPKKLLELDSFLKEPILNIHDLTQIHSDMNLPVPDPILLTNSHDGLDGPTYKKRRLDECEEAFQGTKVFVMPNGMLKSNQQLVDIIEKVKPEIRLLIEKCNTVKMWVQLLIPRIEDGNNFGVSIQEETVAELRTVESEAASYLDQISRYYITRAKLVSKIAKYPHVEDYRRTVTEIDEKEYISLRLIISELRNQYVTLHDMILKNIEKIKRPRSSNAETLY
Experiment: competitive isoTOP-ABPP
Type: binding
Details: 50 uM, in vitro, sol, 231
Please go through the items and note down their isoTOP-ABPP ratio (R) at liganded lysine P61289_K12.

Query: Returns the measured isoTOP-ABPP ratio (R) at liganded lysine P61289_K12 for the input compound. Input: O=C(Oc1ccc([N+](=O)[O-])cc1[N+](=O)[O-])c1ccc2ccccc2n1 [fragment 35]
Reply: 0.7

Query: Returns the measured isoTOP-ABPP ratio (R) at liganded lysine P61289_K12 for the input compound. Input: O=C(Oc1ccc([N+](=O)[O-])cc1[N+](=O)[O-])c1ccc(Oc2ccccc2)cc1 [fragment 39, 2,4-Dinitrophenyl 4-phenoxybenzoate]
Reply: 0.9

Query: Returns the measured isoTOP-ABPP ratio (R) at liganded lysine P61289_K12 for the input compound. Input: O=C(Oc1ccc([N+](=O)[O-])cc1[N+](=O)[O-])C1CCN(C(=O)OCc2ccccc2)CC1 [fragment 34]
Reply: 1.4

Query: Returns the measured isoTOP-ABPP ratio (R) at liganded lysine P61289_K12 for the input compound. Input: O=C(CC12CC3CC(CC(C3)C1)C2)Oc1ccc([N+](=O)[O-])cc1[N+](=O)[O-] [fragment 38]
Reply: 1.9

----------
Target: FH Fumarate hydratase, mitochondrial (Homo sapiens)
Construct: isoTOP-ABPP experiments performed in cell lysates (in vitro); endogenous in cells; host or cells: MDA-MB-231 soluble lysate
Sequence (P07954 45-510): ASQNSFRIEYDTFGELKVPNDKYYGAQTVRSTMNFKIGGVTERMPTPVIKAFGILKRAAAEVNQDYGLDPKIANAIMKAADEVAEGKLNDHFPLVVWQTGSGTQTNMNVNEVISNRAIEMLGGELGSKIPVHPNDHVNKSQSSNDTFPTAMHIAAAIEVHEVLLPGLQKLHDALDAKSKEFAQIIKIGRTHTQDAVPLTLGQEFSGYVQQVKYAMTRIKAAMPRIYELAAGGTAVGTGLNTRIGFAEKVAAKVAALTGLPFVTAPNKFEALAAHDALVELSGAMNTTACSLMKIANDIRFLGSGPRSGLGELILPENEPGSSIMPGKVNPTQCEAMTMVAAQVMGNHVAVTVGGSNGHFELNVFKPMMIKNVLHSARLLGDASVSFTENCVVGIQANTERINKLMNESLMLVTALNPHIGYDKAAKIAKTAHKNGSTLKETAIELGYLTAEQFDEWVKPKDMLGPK
Assay: competitive isoTOP-ABPP
Type: binding
Settings: 50 uM, 231 sol, in vitro
Recorded Metric: isoTOP-ABPP reactivity ratio at lysine P07954_K311
Give the value as a plain number.

Query: Returns the measured isoTOP-ABPP reactivity ratio at lysine P07954_K311 for the input compound. Input: O=C(Oc1ccc([N+](=O)[O-])cc1[N+](=O)[O-])c1cc(C(F)(F)F)cc(C(F)(F)F)c1
Reply: 1.4

Query: Returns the measured isoTOP-ABPP reactivity ratio at lysine P07954_K311 for the input compound. Input: O=C(CCc1coc2cc(F)ccc2c1=O)Oc1c(F)c(F)c(F)c(F)c1F
Reply: 2.4

Query: Returns the measured isoTOP-ABPP reactivity ratio at lysine P07954_K311 for the input compound. Input: COc1cc(CCC(=O)Oc2ccc([N+](=O)[O-])cc2[N+](=O)[O-])cc(OC)c1OC
Reply: 2.2

Query: Returns the measured isoTOP-ABPP reactivity ratio at lysine P07954_K311 for the input compound. Input: O=C(Oc1ccc([N+](=O)[O-])cc1[N+](=O)[O-])C(c1ccccc1)c1ccccc1 [fragment 30, 2,4-Dinitrophenyl 2,2-diphenylacetate]
Reply: 5.2
